Entries and their TGI
tested on: ACHN renal; test: NCI tumour cell line growth inhibition, 48 h
readoutType: TGI

O=C(N/N=C(/COc1ccccc1Cl)N=Cc1ccncc1)c1ccncc1 : > 100 µM
CC(=O)OCCCCn1cc(Cn2ccc(=O)n(Cc3cn(CCCCOC(C)=O)nn3)c2=O)nn1 : > 100 µM
Fc1ccc2c(c1)C1=C(CO2)C(c2ccc(Cl)cc2)NC(=S)N1 (centres undefined) : > 100 µM
COc1cccc(N=N/C(=N\NC(=O)c2cc(Br)ccc2O)c2ccc(N(CCC#N)CCC#N)cc2OC)c1 : > 150 µg/mL
Cc1ccc2c(C(=O)c3c(C)n(CCN4CCOCC4)c4ccccc34)cccc2c1 : 88.4 µM
CC(=O)NC1(C(=O)N[C@@H](Cc2ccccc2)C(=O)NC2CCCCC2)Cc2ccc3ccccc3c2-c2c(ccc3ccccc23)C1 : > 100 µM
O=C(Nc1ccc(Br)cc1)C(=O)C(C(=O)c1ccccc1F)C1OC(=O)c2ccccc21 (centres undefined) : > 100 µM
COc1ccc2c(CCNC(=O)/C=C/c3ccccc3)c(C(C)=O)[nH]c2c1[N+](=O)[O-] : > 100 µM
CCN(CC)CCOC(=O)Cc1cccc2c(=O)cc(-c3ccccc3)oc12 : 62.5 µM

* * *

system: MDA-N; test: NCI tumour cell line growth inhibition, 48 h
readoutType: TGI

N=c1oc2ccccc2cc1-c1nc2ccccc2c(=O)[nH]1 : > 100 µM
Cc1cc(N(CCC#N)CCC#N)ccc1/C=C1\SC(=S)NC1=O : > 100 µM
Nc1ccc2ccc(-c3ccc[nH]3)nc2n1 : > 100 µM
CCCN(CCC)C1CCc2c(ccc3cc[nH]c23)C1 (configuration not stated) : > 100 µM
CC(=O)OC(C)c1cc2c(s1)C(=O)c1c(C(C)OC(C)=O)csc1C2=O (configuration not stated) : 0.382 µM
N#CC[N+]1(Cc2ccccn2)CCCC1 : > 100 µM
CCOC(=O)C(=CN1CCNC1=S)C(=O)OCC : > 100 µM
CN[C@@H](C)[C@@H](O)c1ccccc1 : > 100 µM
O=C(c1ccc(O)c([N+](=O)[O-])c1)c1ccc(O)c([N+](=O)[O-])c1 : > 100 µM
O=C(O)CNC(=O)c1ccc2cc(C(=O)N3CC(CCl)c4ccc([N+](=O)[O-])cc43)[nH]c2c1 (configuration not stated) : > 100 µM
COC12C=CC(C=C1C#N)CC2 (configuration not stated) (tested in a mixture with another compound) : > 100 µM
O=[N+]([O-])c1cccc(Cl)c1Oc1ccc(S(=O)(=O)/N=C(\NO)Nc2ccc(Cl)cc2)cc1 : 26 µM
CC12ON(P(=O)(c3ccccc3)c3ccccc3)C(C)(c3ccccc31)c1ccccc12 : > 100 µM
CN(C)CCNC(=O)c1ccc(Cl)c2cc3ccccc3nc12 : 2.21 µM
CC1=CCC[C@H]2[C@](C)(CC3=CC(=O)C(Sc4ccccc4)=CC3=O)[C@@H](C)CC[C@]12C : 32.4 µM
CCN(CC)CCOC(=O)Cc1cccc2c(=O)cc(-c3ccccc3)oc12 : 62.5 µM
N[C@H](CCC(=O)NCP(=O)(O)O)C(=O)O : > 100 µM
O=C1C2=C(SCCS2)C(=O)c2c(Sc3ccc(Cl)cc3)c(Sc3ccc(Cl)cc3)c(Sc3ccc(Cl)cc3)c(Sc3ccc(Cl)cc3)c21 : > 100 µM
COc1cc2c(cc1OC)[C@@](C)(C(O)C(O)C(C)(C)O)NCC2 (some centres not stated) : > 100 µM
CN(Cc1cnc2nc(N)nc(N)c2n1)c1ccc(C(=O)NC(CCC(=O)NC(CC(P(=O)(O)O)P(=O)(O)O)C(=O)O)C(=O)O)cc1 (configuration not stated) : > 100 µM
COC(=O)C1=CON2C3CC4CC(C3)CC(C4)C12C (configuration not stated) : > 100 µM
COC(=O)NC(Cc1ccccc1)NC(C)=O (configuration not stated) : > 100 µM
